The values you see were collected from patent US8394828B2.

- experimental target: human VR1 (Homo sapiens, UniProt Q8NER1)
- Construct: expressed in transfected cells; host or cells: HEK293
- Sequence (Q8NER1 whole entry): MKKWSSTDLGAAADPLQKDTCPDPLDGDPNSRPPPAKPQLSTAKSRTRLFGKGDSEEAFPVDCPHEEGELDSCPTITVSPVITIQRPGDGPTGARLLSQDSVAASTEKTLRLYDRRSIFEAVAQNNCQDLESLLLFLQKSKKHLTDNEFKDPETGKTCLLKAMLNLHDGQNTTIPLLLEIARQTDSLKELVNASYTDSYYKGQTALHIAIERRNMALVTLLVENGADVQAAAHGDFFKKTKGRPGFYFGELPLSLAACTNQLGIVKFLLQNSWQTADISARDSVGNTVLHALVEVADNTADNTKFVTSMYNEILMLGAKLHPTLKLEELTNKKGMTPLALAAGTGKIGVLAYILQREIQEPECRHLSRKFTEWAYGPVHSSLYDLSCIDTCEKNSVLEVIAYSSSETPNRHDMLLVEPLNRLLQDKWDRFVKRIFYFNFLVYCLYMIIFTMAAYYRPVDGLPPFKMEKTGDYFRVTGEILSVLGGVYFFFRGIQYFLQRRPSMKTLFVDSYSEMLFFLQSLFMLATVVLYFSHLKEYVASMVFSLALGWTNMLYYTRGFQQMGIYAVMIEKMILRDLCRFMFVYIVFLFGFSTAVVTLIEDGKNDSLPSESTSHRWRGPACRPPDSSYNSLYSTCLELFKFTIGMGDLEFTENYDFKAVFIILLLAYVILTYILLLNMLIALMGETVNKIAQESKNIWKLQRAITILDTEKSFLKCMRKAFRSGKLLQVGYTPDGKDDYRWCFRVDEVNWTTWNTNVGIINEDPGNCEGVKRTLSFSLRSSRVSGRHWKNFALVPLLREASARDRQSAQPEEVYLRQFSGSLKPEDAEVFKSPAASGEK
- assay notes: Human VR1 [3H] RTX binding assay
- details: 3H-RTX binding; compound at 1 μM
molecules and their reported inhibition at 1 µM
Form entry: value (%) — number only.

• CN(CC=Cc1ccccc1)c1ccc(C(=O)Nc2cnc3ccccc3c2)cc1 = 79

**Query** Give me measured inhibition at 1 µM, please, for this molecule: O=C(Nc1cnc2ccccc2c1)c1ccc(N2CCCCCCC2)nc1
**Result** 102

**Query** Give me measured inhibition at 1 µM, please, for this molecule: O=C(Nc1cnc2ccccc2c1)c1ccc(NC2CCCCC2)nc1
**Result** 1

**Query** Give me measured inhibition at 1 µM, please, for this molecule: CN(CCC(C)(C)C)c1ccc(C(=O)Nc2cnc3ccccc3c2)cc1
**Result** 99

**Query** Give me measured inhibition at 1 µM, please, for this molecule: CC1CC(C)CN(c2ccc(C(=O)Nc3cnc4ccccc4c3)cc2)C1 (stereo not shown)
**Result** 91

**Query** Give me measured inhibition at 1 µM, please, for this molecule: CN(c1ccc(C(=O)Nc2cnc3ccccc3c2)cn1)C1CCCCC1
**Result** 99

**Query** Give me measured inhibition at 1 µM, please, for this molecule: CN(CCc1ccccc1)c1ccc(CCC(=O)Nc2cnc3ccccc3c2)cc1
**Result** 90
